Test system: MV4-11 cells
Test: Inhibition of MV4-11 cell proliferation (CellTiterGlo)
Format: cell-based
Details: Homo sapiens; 72 hours growth; uncertainty ±20%
readout kind: pIC50
Numbers only, as −log10 of the molar value.

## Task pIC50 for CC(C)Oc1ccc(NC(=O)N2CCC(c3ncnc4cc(OCCCN5CCN(C)CC5)ccc34)CC2)cc1 ?
## Result 7.85

====

Read-out record for TrkB (Homo sapiens): pIC50
Answers are plain numbers, as −log10 of the molar value.

molecule	pIC50
O=C1CCCN1CCCOc1ccc2c(C3CCN(C(=O)Nc4ccc(N5CCOCC5)nc4)CC3)ncnc2c1 [Compound 72]	5.70
COc1cc2ncnc(C3CCN(C(=O)Nc4ccc(C5=CCN(C(=O)OC(C)(C)C)CC5)cc4)CC3)c2cc1OC [Compound 61]	4.39
CN1CCC(Oc2ccc3c(C4CCN(C(=O)Nc5ccc(N6CCOCC6)cc5)CC4)ncnc3c2)CC1 [Compound 127]	4.87

## Task pIC50 for COc1cc2ncnc(C3CCN(C(=O)Nc4ccc(N5CCOCC5)cc4)CC3)c2cc1OC [Compound 18] ?
## Result 4.72

====

Target: FLT ligand-induced wild-type FLT3 phosphorylation (Homo sapiens)
Construct: host or cells: Baf3 (murine B cell lymphoma line)
Sequence (P36888 27-993): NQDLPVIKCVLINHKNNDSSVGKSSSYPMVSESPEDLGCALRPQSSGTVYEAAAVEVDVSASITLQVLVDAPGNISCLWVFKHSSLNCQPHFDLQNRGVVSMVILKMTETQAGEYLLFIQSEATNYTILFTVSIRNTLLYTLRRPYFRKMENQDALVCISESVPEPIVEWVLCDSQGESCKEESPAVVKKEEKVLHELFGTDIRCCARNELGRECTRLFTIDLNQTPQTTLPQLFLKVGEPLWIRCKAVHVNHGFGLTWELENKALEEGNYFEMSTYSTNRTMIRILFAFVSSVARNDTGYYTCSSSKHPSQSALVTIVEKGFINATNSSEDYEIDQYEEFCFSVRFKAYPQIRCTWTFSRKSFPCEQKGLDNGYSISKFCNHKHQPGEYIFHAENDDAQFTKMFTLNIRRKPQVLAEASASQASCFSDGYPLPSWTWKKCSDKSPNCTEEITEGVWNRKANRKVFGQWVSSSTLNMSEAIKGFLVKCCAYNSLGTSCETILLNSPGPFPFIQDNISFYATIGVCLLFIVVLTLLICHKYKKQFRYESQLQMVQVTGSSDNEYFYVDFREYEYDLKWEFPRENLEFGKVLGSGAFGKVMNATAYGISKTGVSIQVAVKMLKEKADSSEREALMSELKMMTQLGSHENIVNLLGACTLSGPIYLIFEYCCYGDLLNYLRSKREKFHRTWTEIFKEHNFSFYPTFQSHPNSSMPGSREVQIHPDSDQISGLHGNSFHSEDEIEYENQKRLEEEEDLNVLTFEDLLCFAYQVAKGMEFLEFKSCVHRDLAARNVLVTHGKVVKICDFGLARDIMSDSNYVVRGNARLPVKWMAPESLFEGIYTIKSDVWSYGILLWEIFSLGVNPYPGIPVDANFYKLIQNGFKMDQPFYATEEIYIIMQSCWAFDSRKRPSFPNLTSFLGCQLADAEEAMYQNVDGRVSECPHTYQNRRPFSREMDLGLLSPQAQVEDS
Assay: Cell-Based FLT3 Receptor Elisa (Baf3 FLT3 cells)
Conditions: uncertainty ±20%
readout kind: IC50

molecule	IC50
COc1cc2ncnc(C3CCN(C(=O)Nc4ccc(C(C)O)cc4)CC3)c2cc1OC (centres unmarked) [Compound 55]	1000 nM

## Task IC50 for COc1cc2ncnc(C3CCN(C(=O)Nc4ccc(N5CCN(C)CC5)cc4)CC3)c2cc1OC [Compound 20] ?
## Result > 3000 nM

====

Molecular target: isolated kinase domain of the human c-kit receptor (Homo sapiens)
Construct: isolated kinase domain of the human c-kit receptor
Sequence (P10721 589-937 limits assumed): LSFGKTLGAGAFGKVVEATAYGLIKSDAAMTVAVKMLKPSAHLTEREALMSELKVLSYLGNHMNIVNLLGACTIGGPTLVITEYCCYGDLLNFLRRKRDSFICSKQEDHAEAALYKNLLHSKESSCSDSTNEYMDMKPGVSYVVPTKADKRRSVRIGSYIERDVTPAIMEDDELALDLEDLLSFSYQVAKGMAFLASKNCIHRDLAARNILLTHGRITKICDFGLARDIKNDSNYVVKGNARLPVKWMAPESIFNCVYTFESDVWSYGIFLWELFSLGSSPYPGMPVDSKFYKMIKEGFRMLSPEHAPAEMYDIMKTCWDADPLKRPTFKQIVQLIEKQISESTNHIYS
Experiment: c-Kit Fluorescence Polarization Kinase Assay
Conditions: uncertainty ±10%; read-out: ckit IC50
Consider the cut-off 40 nM. If the recorded IC50 is strictly smaller, the label is TRUE; if not, the label is FALSE.

compound	class label
CC(C)Oc1ccc(NC(=O)N2CCC(c3ncnc4ccc(OCCCN5CCN(C)CC5)cc34)CC2)cc1 [Compound 76]	FALSE
O=C1CCCN1CCOc1ccc2c(C3CCN(C(=O)Nc4ccc(N5CCOCC5)nc4)CC3)ncnc2c1 [Compound 83]	TRUE
CS(=O)(=O)NCCCOc1ccc2c(C3CCN(C(=O)Nc4ccc(OC5CCCC5)nc4)CC3)ncnc2c1 [Compound 88]	TRUE
CC(C)Oc1ccc(NC(=O)N2CCC(c3ncnc4cc(OCCCN5CCN(C)CC5)ccc34)CC2)cc1 [Compound 39]	TRUE
O=C1CCCN1CCCOc1ccc2c(C3CCN(C(=O)Nc4ccc(N5CCCC5)nc4)CC3)ncnc2c1 [Compound 89]	TRUE
O=C1CCCN1CCOc1ccc2c(C3CCN(C(=O)Nc4ccc(N5CCCC5)cc4)CC3)ncnc2c1 [Compound 74]	TRUE
O=C1CCCN1CCCOc1ccc2c(C3CCN(C(=O)Nc4ccc(N5CCOCC5)nc4)CC3)ncnc2c1 [Compound 72]	TRUE
COc1cc2ncnc(C3CCN(C(=O)Nc4ccc(N5CCOCC5)cc4)CC3)c2cc1OC [Compound 18]	FALSE

## Task Find out if reported IC50 for COc1cc2ncnc(C3CCN(C(=O)Nc4ccc(C(C)C)cc4)CC3)c2cc1OC [Compound 4] is less than 40 nM
## Result FALSE

Hey, just so you know, these numbers are from patent US8071768B2.
